target: hMC-3R (Homo sapiens, UniProt P41968); experiment: cAMP assay in CHO cells expressing a human melanocortin receptor; details: 45 minutes at room temperature
Sequence (P41968 whole entry): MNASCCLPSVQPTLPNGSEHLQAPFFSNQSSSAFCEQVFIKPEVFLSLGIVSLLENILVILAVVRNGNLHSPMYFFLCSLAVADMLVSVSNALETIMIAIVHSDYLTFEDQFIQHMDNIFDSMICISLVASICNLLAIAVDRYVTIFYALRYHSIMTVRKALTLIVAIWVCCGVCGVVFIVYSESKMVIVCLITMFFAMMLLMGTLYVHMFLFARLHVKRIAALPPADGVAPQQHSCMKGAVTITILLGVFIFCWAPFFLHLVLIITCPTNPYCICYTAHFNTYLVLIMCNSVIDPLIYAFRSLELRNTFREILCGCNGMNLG
pEC50: −log10 of the molar value. Starred links: 1 amine or outer side, 2 acyl side, 3 side chain; linkers in the order of their positions; H or OH if unused. Positions of bridges follow the written chain, without caps; N, C: chain ends. Non-standard residues stand in square brackets, D forms with d. Residues, ends and D or L forms follow the SMILES beside them. ξ: configuration not given here. 2Nal = N[C@@H](Cc1ccc2ccccc2c1)C(=O)O; Suc = O=C(CCC(=O)[*:2])[*:1]; ξE = NC(CCC(=O)O)C(=O)O; ξDab = NCCC(N)C(=O)O; ξK = NCCCCC(N)C(=O)O; ξDap = NCC(N)C(=O)O; GABA = NCCCC(=O)O
Respond with T for pEC50 values of 6 and above, F for values below.

[
  {
    "compound": "N=C(N)NCCC[C@@H]1NC(=O)[C@@H](Cc2ccccc2)NC(=O)[C@H](Cc2c[nH]cn2)NC(=O)CCCNC(=O)CCC(C(N)=O)NC(=O)[C@H](Cc2c[nH]c3ccccc23)NC1=O (stereo partly drawn) [Example 7] ([GABA]H[dF]RW[ξE]-NH2; lactam N-6)",
    "category": "T"
  },
  {
    "compound": "N=C(N)NCCC[C@@H]1NC(=O)[C@@H](Cc2ccccc2)NC(=O)[C@H](Cc2c[nH]cn2)NC(=O)CCC(=O)NCCCCC(C(N)=O)NC(=O)[C@H](Cc2ccc3ccccc3c2)NC1=O (stereo partly drawn) [Example 5] (H[dF]R[2Nal][ξK]-NH2; linker N-5 via Suc)",
    "category": "T"
  },
  {
    "compound": "N=C(N)NCCC[C@@H]1NC(=O)[C@@H](Cc2ccccc2)NC(=O)[C@H](Cc2c[nH]cn2)NC(=O)CCC(=O)NCCC(C(N)=O)NC(=O)[C@H](Cc2c[nH]c3ccccc23)NC1=O (stereo partly drawn) [Example 2] (H[dF]RW[ξDab]-NH2; linker N-5 via Suc)",
    "category": "T"
  },
  {
    "compound": "N=C(N)NCCC[C@@H]1NC(=O)[C@@H](Cc2ccccc2)NC(=O)[C@H](Cc2c[nH]cn2)NC(=O)CCC(=O)NCCCCC(C(N)=O)NC(=O)[C@H](Cc2c[nH]c3ccccc23)NC1=O (stereo partly drawn) [Example 1] (H[dF]RW[ξK]-NH2; linker N-5 via Suc)",
    "category": "T"
  },
  {
    "compound": "N=C(N)NCCC[C@@H]1NC(=O)[C@@H](Cc2ccccc2)NC(=O)[C@H](Cc2c[nH]cn2)NC(=O)CNC(=O)CCC(C(N)=O)NC(=O)[C@H](Cc2c[nH]c3ccccc23)NC1=O (stereo partly drawn) [Example 9] (GH[dF]RW[ξE]-NH2; lactam N-6)",
    "category": "F"
  },
  {
    "compound": "N=C(N)NCCC[C@@H]1NC(=O)[C@@H](Cc2ccccc2)NC(=O)[C@H](Cc2c[nH]cn2)NC(=O)CCC(=O)NCC(C(N)=O)NC(=O)[C@H](Cc2c[nH]c3ccccc23)NC1=O (stereo partly drawn) [Example 3] (H[dF]RW[ξDap]-NH2; linker N-5 via Suc)",
    "category": "T"
  }
]

The measured values listed here are drawn from patent US6960646B2.
